Experiment: Hardness (Shore hardness tester, GB/T 531-2008)
Type: physicochemical
Conditions: PVC plastic: 100 parts PVC resin, 35 parts plasticizer, 2 parts oxidized polyethylene wax, 5 parts octyltin maleate
Where a name gives a salt, the structure may show the parent alone.
metricName: Hardness/Shore D
Give the number first and the unit second.

CCCCOC(=O)C=C(CC(=O)OCCCC)C(=O)OCCCC [Example 24, tributyl aconitate]
43 Shore D
CCCCOC(=O)CC(O)(CC(=O)OCCCC)C(=O)OCCCC [Comparative Example 4, tributyl citrate, reference compound]
51 Shore D
CCCCOC(=O)C=C(CC(=O)OCCCC)C(=O)OCCCC [Example 23, tributyl aconitate]
43 Shore D

Value sought for every listed compound: Hardness/Shore D.
1. CCCCOC(=O)C=C(CC(=O)OCCCC)C(=O)OCCCC [Example 33, tributyl aconitate]
2. CCCCOC(=O)C=C(CC(=O)OCCCC)C(=O)OCCCC [Example 32, tributyl aconitate]
3. CCCCOC(=O)C=C(CC(=O)OCCCC)C(=O)OCCCC [Example 27, tributyl aconitate]

1. 47 Shore D
2. 43 Shore D
3. 45 Shore D

Batch request: Hardness/Shore D for each of the following compounds.
1. CCCCOC(=O)C=C(CC(=O)OCCCC)C(=O)OCCCC [Example 25, tributyl aconitate]
2. CCCCOC(=O)C=C(CC(=O)OCCCC)C(=O)OCCCC [Example 29, tributyl aconitate]

["45 Shore D", "42 Shore D"]

---

Assay: Residual amounts of fat-soluble and water-soluble pigments (HPLC)
Type: physicochemical
Conditions: aconitate/citrate products, Table 4
// no (0) strictly below 2000 ppm in Residual amounts of water-soluble pigments; yes (1) otherwise

Would you please look over these solved cases?
CCCCC(CC)COC(=O)C=C(CC(=O)OCC(CC)CCCC)C(=O)OCC(CC)CCCC (centres unmarked) [Example 20, tri(2-ethylhexyl) aconitate]
no (0)
CCCCOC(=O)C=C(CC(=O)OCCCC)C(=O)OCCCC [Example 32, tributyl aconitate]
no (0)
CCOC(=O)C=C(CC(=O)OCC)C(=O)OCC [Example 21, triethyl aconitate]
no (0)
CCCCOC(=O)C=C(CC(=O)OCCCC)C(=O)OCCCC [Example 33, tributyl aconitate]
yes (1)
CCCCOC(=O)C=C(CC(=O)OCCCC)C(=O)OCCCC [Example 34, tributyl aconitate]
no (0)
CCCCOC(=O)C=C(CC(=O)OCCCC)C(=O)OCCCC [Example 30, tributyl aconitate]
no (0)
CCCCOC(=O)C=C(CC(=O)OCCCC)C(=O)OCCCC [Example 36, tributyl aconitate]
no (0)
CCCCOC(=O)C=C(CC(=O)OCCCC)C(=O)OCCCC [Comparative Example 1, tributyl aconitate, reference compound]
yes (1)
CCCCOC(=O)C=C(CC(=O)OCCCC)C(=O)OCCCC [Example 26, tributyl aconitate]
no (0)
CCCCOC(=O)C=C(CC(=O)OCCCC)C(=O)OCCCC [Example 35, tributyl aconitate]
yes (1)

// next entry
Check if Residual amounts of water-soluble pigments >= 2000 ppm (inclusive). Item: CCCCOC(=O)C=C(CC(=O)OCCCC)C(=O)OCCCC [Comparative Example 2, tributyl aconitate, reference compound]
yes (1)

---

Experiment: Hardness (Shore hardness tester, GB/T 531-2008)
Format: physicochemical
Conditions: PVC plastic: 100 parts PVC resin, 35 parts plasticizer, 2 parts oxidized polyethylene wax, 5 parts octyltin maleate
Method: The aconitates and tributyl citrate prepared in the above examples and comparative examples were added as plasticizers to PVC resin to obtain PVC plastics. […] In the experiment, 2.5 g of plasticizer and 25 g of acetone were added to a beaker, titrated with a burette filled with deionized water, and agitated while titrating until turbidity appears, and the volume of deionized water consumed was recorded. • 4. […]
Please go through the items and note down their Hardness/Shore D.
The reply should consist of the numeric value with the unit placed after it.

Example cases with answers are listed next.
CCCCOC(=O)C=C(CC(=O)OCCCC)C(=O)OCCCC [Example 34, tributyl aconitate]
41 Shore D
CCCCOC(=O)C=C(CC(=O)OCCCC)C(=O)OCCCC [Comparative Example 1, tributyl aconitate, reference compound]
46 Shore D

Let us move to another entry and its Hardness/Shore D.
Hardness/Shore D reported for this molecule CCCCOC(=O)C=C(CC(=O)OCCCC)C(=O)OCCCC [Example 31, tributyl aconitate] : 45 Shore D

Numbers sourced from patent EP4715056A1.
